Where do the numbers come from? From ChEMBL document CHEMBL3885861.

# Species: Rattus norvegicus
# test: Open TG-GATES - Regimen: Single
# Format: toxicity, organism-based, Sprague-Dawley
# Design: regimen Single, gender Male, age 6 weeks
# measurement-setup: in vivo, po, 100 mg/kg, 3 h, tissue Plasma, route gavage, dose level High
Listing: ALT of selected compounds
Please state the figure in IU/L; there is no need to write the unit.

Some entries whose results are on file:
smiles-repr: CC1=C(/C=C/C(C)=C/C=C/C(C)=C/CO)C(C)(C)CCC1
ALT (IU/L): 46
//
smiles-repr: CN(C)CCCN1c2ccccc2CCc2ccc(Cl)cc21
ALT (IU/L): 42.8
//
smiles-repr: CN(C)CCCN1c2ccccc2CCc2ccccc21
ALT (IU/L): 45

Now, please, on to the next compound.
So for CN(C)CCN(Cc1cccs1)c1ccccn1 , the logged ALT turned out to be 54.6

* * *

# maps each entry to its Ret
# Organism: Rattus norvegicus
# test: Open TG-GATES - Regimen: Single
# Type: toxicity, organism-based, Sprague-Dawley
# Design: regimen Single, gender Male, age 6 weeks
# measurement-setup: in vivo, po, 300 mg/kg, 3 h, tissue Blood, route gavage, dose level Middle

Solved cases below.
compound: COC1=CC(=O)C[C@@H](C)[C@]12Oc1c(Cl)c(OC)cc(OC)c1C2=O
Ret: 7.8%

compound: CCOC(=O)CCC(=O)O[C@H]1[C@H](O[C@@H]2[C@@H](C)[C@H](O[C@H]3C[C@@](C)(OC)[C@@H](O)[C@H](C)O3)[C@@H](C)C(=O)O[C@H](CC)[C@@](C)(O)[C@H](O)[C@@H](C)C(=O)[C@H](C)C[C@@]2(C)O)O[C@H](C)C[C@@H]1N(C)C [ERYTHROMYCIN ETHYLSUCCINATE]
Ret: 7.9%

compound: COc1ccc2[nH]c([S+]([O-])Cc3ncc(C)c(OC)c3C)nc2c1 (centres undefined)
Ret: 8.2%

Quick note, Ret for NC(N)=Nc1nc(CSCCC(N)=NS(N)(=O)=O)cs1 landed at 7.6%

* * *

# Species: Rattus norvegicus
# test: Open TG-GATES - Regimen: Single
# Type: toxicity, organism-based, Sprague-Dawley
# Set-up: regimen Single, gender Male, age 6 weeks
# measurement-setup: in vivo, po, 100 mg/kg, 24 h, tissue Blood, route gavage, dose level High
Catalogue of Fbg values
Write down the numeric answer in mg/dL and omit the unit.

Illustrative cases are given below, each with its answer.
compound: CN(C)CCN(Cc1cccs1)c1ccccn1
Fbg, mg/dL: 275.2
//
compound: CC1=C(/C=C/C(C)=C/C=C/C(C)=C/CO)C(C)(C)CCC1 [RETINOL]
Fbg, mg/dL: 303.6
//
compound: CN(C)CCCN1c2ccccc2CCc2ccc(Cl)cc21 [CLOMIPRAMINE]
Fbg, mg/dL: 278.8

Sure, the documented Fbg for CN(C)CCCN1c2ccccc2CCc2ccccc21 [IMIPRAMINE] is 293.2

* * *

# Species: Rattus norvegicus
# test: Open TG-GATES - Regimen: Daily Repeat
# Format: toxicity, organism-based, Sprague-Dawley
# Design: regimen Daily Repeat, gender Male, age 6 weeks
# measurement-setup: in vivo, po, 1000 mg/kg, […], tissue Blood, route gavage, dose level High, time 28 day
measured-quantity: Neu (%)
The answer is to be given in %; state only the numeric part.

molecule: COc1ccc2[nH]c([S+]([O-])Cc3ncc(C)c(OC)c3C)nc2c1 (stereo not given)
measured-quantity: Neu
endpoint-value: 17.6
--
molecule: CCOc1ccc(NC(=O)CC(C)O)cc1 (stereo not given)
measured-quantity: Neu
endpoint-value: 17.4
--
molecule: NC(N)=Nc1nc(CSCCC(N)=NS(N)(=O)=O)cs1
measured-quantity: Neu
endpoint-value: 11
--
molecule: COC1=CC(=O)C[C@@H](C)[C@]12Oc1c(Cl)c(OC)cc(OC)c1C2=O
measured-quantity: Neu
endpoint-value: 11.4

# Neu (molecule: CCOC(=O)CCC(=O)O[C@H]1[C@H](O[C@@H]2[C@@H](C)[C@H](O[C@H]3C[C@@](C)(OC)[C@@H](O)[C@H](C)O3)[C@@H](C)C(=O)O[C@H](CC)[C@@](C)(O)[C@H](O)[C@@H](C)C(=O)[C@H](C)C[C@@]2(C)O)O[C@H](C)C[C@@H]1N(C)C [ERYTHROMYCIN ETHYLSUCCINATE] ) is 12.6
